Source: PubChem BioAssay (NCI)

- System: KM12 colon
- METHOD DESCRIPTION: NCI tumour cell line growth inhibition, 48 h
Where a SMILES comes first, the peptide text is derived from it. [ ]: non-standard residue; d: D form. The star is where a group is joined. ξ: configuration not given here. X16 = COC1=CC(=O)N(C(=O)C(O*)C(C)C)C1Cc1ccccc1; ξNMe2Val = CC(C)C(C(=O)*)N(C)C; NMeV = CN[CH](C(=O)O)C(C)C
PARAMETER: GI50

Below: 4 molecules and their reported GI50.
1) COc1cc(-c2c3c(cn2S(=O)(=O)c2ccccc2)-c2nc(N)sc2CC3)cc(OC)c1OC	0.722 µM
2) O=S(=O)(Nc1ccc(-c2nc(-c3cccc(OCCN4CCOCC4)c3)c(-c3ccnc(Br)c3)[nH]2)cc1)c1ccccc1	3.21 µM
3) Cc1cc(N(CCCl)CCCl)ccc1C=Nc1cccnc1	42.6 µM
4) COC1=CC(=O)N(C(=O)C(OC(=O)C2CCCN2C(=O)C2CCCN2C(=O)C(C(C)C)N(C)C(=O)C(NC(=O)C(C(C)C)N(C)C)C(C)C)C(C)C)C1Cc1ccccc1 (stereo not given) (ξNMe2Val-V[NMeV]PP-X16; configuration not given here)	< 0.0004 µM

Please examine the following record next.
-- ask Endpoint output: GI50 of COCCNCC(O)Cn1c2ccc(Cl)cc2c2cc(Cl)ccc21 (stereo not given) . Value?
-- reply 1.9 µM
